Literature compilation of Ki measurements on Tyrosine-protein kinase JAK3 (Homo sapiens).

Worked examples follow.
>>> val("CC(=O)CCC(=O)Nc1nc(-c2ncnc3[nH]ccc23)cs1")
"100 to 500 nM"
>>> val("O=c1[nH]ccc2c(-c3oncc3-c3cccc(F)c3F)c[nH]c12")
"200 to 1000 nM"
>>> val("CN(CCc1ccccn1)C(=O)c1cc(-c2ncnc3[nH]ccc23)c[nH]1")
"100 to 500 nM"

Item C[C@H](Nc1cc(-c2cnn3cccnc23)nc(OCCN(C)C)n1)c1ccc(F)cc1F with Tyrosine-protein kinase JAK3 (Homo sapiens) - Ki?
10 to 100 nM

Item Clc1ccc(/C=C/c2ncnc3[nH]ccc23)cc1 with Tyrosine-protein kinase JAK3 (Homo sapiens) - Ki?
< 500 nM

Item CCN(C(=O)c1c(N)nn2cc(-c3ccncn3)cnc12)C(C)C with Tyrosine-protein kinase JAK3 (Homo sapiens) - Ki?
> 5000 nM
